Data origin: patent US20120231006A1

Molecular target: T1, human Orai1 (human, UniProt Q96D31 1-301)
T1 construct: on AM1-CHO/hOrai1/hSTIM1-YFP, AM1/hOrai1, HEK-293 transfectants, endogenous on Jurkat and blood cells; in Westerns from cell lysates; also called hOrai1; CRACM1
T1 sequence (Q96D31 whole entry): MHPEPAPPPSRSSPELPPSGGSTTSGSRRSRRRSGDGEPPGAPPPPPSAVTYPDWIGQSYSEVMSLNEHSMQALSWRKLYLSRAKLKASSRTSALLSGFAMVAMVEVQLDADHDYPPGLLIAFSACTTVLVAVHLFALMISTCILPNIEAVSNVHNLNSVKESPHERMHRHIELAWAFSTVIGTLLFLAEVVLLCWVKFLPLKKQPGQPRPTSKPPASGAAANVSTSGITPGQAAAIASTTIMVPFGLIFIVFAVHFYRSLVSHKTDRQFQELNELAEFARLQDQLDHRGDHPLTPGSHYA
Test: FACS Kd, AM1-CHO/hOrai1/hSTIM1-YFP cells
metricName: pKd
The scale used: pKd is minus the common logarithm of the concentration in molar units.

* mAb 5B1.1 (antibody, human IgG2, lambda, V domains shown, fully human IgG2 lambda, Campaign 2; also called mAb 5Bl1.1) VH: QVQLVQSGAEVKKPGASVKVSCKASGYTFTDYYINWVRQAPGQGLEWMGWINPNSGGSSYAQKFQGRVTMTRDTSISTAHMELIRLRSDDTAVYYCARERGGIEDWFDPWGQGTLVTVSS VL: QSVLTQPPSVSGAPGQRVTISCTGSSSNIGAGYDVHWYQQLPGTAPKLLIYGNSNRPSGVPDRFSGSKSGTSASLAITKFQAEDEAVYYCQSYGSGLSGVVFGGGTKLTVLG | 9.35

Read the next record carefully.
In: Give the reported pKd for this binder. mAb 5B5.1 (antibody, human IgG2, lambda, V domains shown, fully human IgG2 lambda, Campaign 2, recombinant; same chains as 5B5.2) VH: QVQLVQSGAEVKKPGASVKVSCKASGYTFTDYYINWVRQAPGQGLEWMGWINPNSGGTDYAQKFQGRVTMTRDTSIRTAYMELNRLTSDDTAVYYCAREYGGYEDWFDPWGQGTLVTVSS VL: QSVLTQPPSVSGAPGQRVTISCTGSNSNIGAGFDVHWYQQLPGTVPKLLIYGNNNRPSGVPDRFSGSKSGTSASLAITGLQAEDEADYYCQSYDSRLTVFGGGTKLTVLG
Out: 9.13
